Reference source: ChEMBL document CHEMBL2176907

experimental-readout: pEC50
Schema: pEC50 number; meaning minus log10 of the concentration expressed in molar units.

Query string: # return pEC50 for `CC(C)n1c(=O)n(C(=O)NCC2CCN(CC3(O)CCOCC3)CC2)c2cc(F)ccc21` , test system: 5-hydroxytryptamine receptor 4 (Rattus norvegicus)
Sequence (Q62758 whole entry): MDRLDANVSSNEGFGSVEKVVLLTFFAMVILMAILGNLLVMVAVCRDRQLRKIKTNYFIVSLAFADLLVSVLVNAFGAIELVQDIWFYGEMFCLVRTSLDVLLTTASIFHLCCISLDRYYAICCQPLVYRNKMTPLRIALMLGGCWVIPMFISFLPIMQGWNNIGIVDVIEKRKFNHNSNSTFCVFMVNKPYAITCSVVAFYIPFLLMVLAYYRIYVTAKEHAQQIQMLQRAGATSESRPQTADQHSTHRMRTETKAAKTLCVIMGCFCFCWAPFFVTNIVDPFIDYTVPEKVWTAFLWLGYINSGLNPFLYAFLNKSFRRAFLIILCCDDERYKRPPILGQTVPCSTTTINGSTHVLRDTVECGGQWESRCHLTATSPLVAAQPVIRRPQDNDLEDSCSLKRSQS
Result string: 9.02

Query string: # return pEC50 for `CC1(C)C(=O)N(C(=O)NCC2CCN(CC3(O)CCOCC3)CC2)c2cc(F)ccc21` , test system: 5-hydroxytryptamine receptor 4 (Rattus norvegicus)
Result string: 8.82

====

experimental-readout: pKi
Schema: pKi number; meaning minus log10 of the concentration expressed in molar units.

Query string: # return pKi for `CC(C)n1c(=O)n(C(=O)NCC2CCN(CC3(O)CCOCC3)CC2)c2cc(F)ccc21` , test system: 5-hydroxytryptamine receptor 4 (Rattus norvegicus)
Result string: 8.82

====

Could you please report measured AUC(0-t) at 4 h for the items listed next?
- experiment: AUC (0 to 4 hrs) in sc dosed Sprague-Dawley rat CSF by LC-MS/MS analysis
- Type: ADME, organism-based
- Parameters: time < 4 hr, route subcutaneous
Respond with the bare value in µM·h.

Query string: Report measured AUC(0-t) at 4 h; entry is `OC1(CN2CCC(COc3noc4cccc(O[C@@H]5CCOC5)c34)CC2)CCOCC1`
Result string: 0.519

Query string: Report measured AUC(0-t) at 4 h; entry is `CC1(C)C(=O)N(C(=O)NCC2CCN(CC3(O)CCOCC3)CC2)c2cc(F)ccc21`
Result string: 1.38

====

Could you please report measured pEC50 for the items listed next?
- assayed-system: UniProt:Q13639
- Sequence (Q13639 whole entry): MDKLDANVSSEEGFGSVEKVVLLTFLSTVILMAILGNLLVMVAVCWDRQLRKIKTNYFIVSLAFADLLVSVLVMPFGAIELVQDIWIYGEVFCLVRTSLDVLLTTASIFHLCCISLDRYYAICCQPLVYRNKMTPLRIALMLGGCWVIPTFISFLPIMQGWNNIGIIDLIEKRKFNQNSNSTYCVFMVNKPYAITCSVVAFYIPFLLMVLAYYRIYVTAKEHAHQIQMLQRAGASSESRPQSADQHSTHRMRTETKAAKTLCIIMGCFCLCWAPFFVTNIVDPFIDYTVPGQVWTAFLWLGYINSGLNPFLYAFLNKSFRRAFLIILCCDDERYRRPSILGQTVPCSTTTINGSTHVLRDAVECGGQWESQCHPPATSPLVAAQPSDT
- experiment: Agonist activity at human 5HT4D receptor expressed in HEK293 cells assessed as cAMP production after 30 mins by HTRF assay
- Type: functional, cell-based
Schema: pEC50 number; meaning minus log10 of the concentration expressed in molar units.

Query string: Report measured pEC50; entry is `CC(C)COc1cccc2onc(OCC3CCN(CC4(O)CCOCC4)CC3)c12`
Result string: 9.01

Query string: Report measured pEC50; entry is `CCCCN1CCC(COc2noc3cccc(OCC(C)(C)C)c23)CC1`
Result string: 8.20

Query string: Report measured pEC50; entry is `CC1(C)C(=O)N(C(=O)NCC2CCN(CC3(O)CCOCC3)CC2)c2cc(F)ccc21`
Result string: 9.05

Query string: Report measured pEC50; entry is `CC(C)n1c(=O)n(C(=O)NCC2CCN(CC3(O)CCOCC3)CC2)c2cc(F)ccc21`
Result string: 9.05

Query string: Report measured pEC50; entry is `CCCCN1CCC(COc2noc3cccc(OC4CCCC4)c23)CC1`
Result string: 8.92

Query string: Report measured pEC50; entry is `CC(C)(O)COc1cccc2onc(OCC3CCN(CC4(O)CCOCC4)CC3)c12`
Result string: 8.77

Query string: Report measured pEC50; entry is `O[C@@H]1CC[C@@H](Oc2cccc3onc(OCC4CCN(CC5(O)CCOCC5)CC4)c23)C1`
Result string: 9.40

====

- experiment: Intrinsic clearance in human liver microsomes
- Assay type: ADME, Microsome
- particulars: read-out: CLH
Could you please report measured CLint scaled for the items listed next?
Respond with the bare value in L/h/kg.

Query string: Report measured CLint scaled; entry is `CC(C)n1c(=O)n(C(=O)NCC2CCN(CC3(O)CCOCC3)CC2)c2cc(F)ccc21`
Result string: 1.46

Query string: Report measured CLint scaled; entry is OC1(CN2CCC(COc3noc4cccc(O[C@@H]5CCOC5)c34)CC2)CCOCC1 [PF-04995274]
Result string: 1.98

Query string: Report measured CLint scaled; entry is `O[C@@H]1CC[C@@H](Oc2cccc3onc(OCC4CCN(CC5(O)CCOCC5)CC4)c23)C1`
Result string: 3.36
